Read-out: UDP glucuronosyltransferase (UGT1A1), UGT1A1 (gene 54658)
Experiment: LTEA_HepaRG_UGT1A1: Life Technologies and Expression Analysis (LTEA) Assay for UDP glucuronosyltransferase (UGT1A1) using HepaRG (AID 2283538)
Details: mRNA level, 48 h; actives raise or lower the signal
Active and inactive are the calls of the source. The calls were made as follows: active = hit-call score of the fitted dose curve at least 0.9, where 1 is the maximum; inactive = score below 0.9.
Outcome codes: Y for active, N for inactive

# compound, class.name
measured = [
    ("Clc1cc(Cl)c(Cl)cc1Cl", "N"),
    ("CC(=O)Oc1ccccc1C(=O)O", "N"),
    ("C=CCc1ccc(O)c(OC)c1", "N"),
    ("O=C(N[C@@H](Cc1ccccc1)[C@@H](O)C(=O)N1C[C@@H](O)[C@@H](O)C1)c1cc2cc(Cl)ccc2[nH]1", "N"),
    ("COc1cc(-c2nc(NC(=O)c3cc4cc(C)cc(C)c4n3CC(=O)O)sc2CCC2CCCCC2)c(OC)cc1Cl", "Y"),
    ("NCCO", "N"),
    ("c1cc(-c2ccncc2)ccn1", "Y"),
    ("CCCc1cc(=O)[nH]c(=S)[nH]1", "N"),
    ("C1CCC(SSC2CCCCC2)CC1", "N"),
    ("Cc1cc(NC(=O)C(=O)O)cc(C)c1Oc1ccc(O)c2c1CCC2", "N"),
    ("CN1CCCC1=O", "N"),
    ("CCCCc1ccc2c(n1)[C@@H](c1ccc(OC)cc1C[C@H](C)C(=O)O)[C@H](C(=O)O)[C@H]2c1ccc2c(c1)OCO2", "N"),
    ("CC1(C)NC(=O)NC1=O", "N"),
    ("Oc1ccc2c(c1)OC[C@@H](N1CCC(O)(c3ccc(F)cc3)CC1)[C@H]2O", "N"),
    ("CC(CO)OC(C)CO (stereo not given) (tested in a mixture with another compound)", "N"),
]

###

Read-out: Interferon-gamma inducible Protein 10 (IP10), CXCL10 (gene 3627)
Assay: BSK_hDFCGF_IP10: BioMAP Diversity Plus: hDFCGF Assay for Interferon-gamma inducible Protein 10 (IP10) Biomarker Activity (AID 2283053)
Details: primary human foreskin fibroblasts; actives raise or lower the signal
Calls of active or inactive are those of the source. The calls were made as follows: active = hit-call score of the fitted dose curve at least 0.9, where 1 is the maximum; inactive = score below 0.9.
Outcome codes: true (1) for active, false (0) for inactive

# compound, class.name
measured = [
    ("CCCCCCC(=O)OCC", "false (0)"),
    ("CCCCCCCCCCCCCCCCCC(=O)O", "false (0)"),
    ("O=[N+]([O-])C(CO)(CO)CO", "false (0)"),
    ("Clc1cc(Cl)c(Cl)cc1Cl", "false (0)"),
    ("Cc1ccc2ncccc2c1", "false (0)"),
    ("FC(F)(F)C(F)(F)C(F)(F)C(F)(F)C(F)(F)C(F)(F)CCI", "false (0)"),
    ("O=C(O)CCCCC(=O)O", "false (0)"),
    ("COC(=O)c1ccc(O)cc1", "false (0)"),
    ("CCCCCCCCCCCCCO", "true (1)"),
    ("Cc1nc(-c2ccc3c(c2)CCN(CCC2CCC(NC(=O)/C=C/c4ccc(F)cc4)CC2)CC3)no1 (configuration not stated)", "false (0)"),
    ("CNC(=O)[C@H]1O[C@@H](n2cnc3c(NCc4cc(Cl)ccc4OCc4cc(C)no4)ncnc32)[C@H](O)[C@@H]1N", "false (0)"),
    ("CC(=O)OCCOCCOCCOC(C)=O", "false (0)"),
    ("CCCCCC(=O)O", "false (0)"),
    ("CC(C)(C)c1cc(O)c(C(C)(C)C)cc1O", "true (1)"),
    ("Cc1cccc([N+](=O)[O-])c1C", "false (0)"),
    ("CCNc1cccc(C)c1", "false (0)"),
    ("CCCCCCCCCCC", "false (0)"),
    ("NCCO", "false (0)"),
    ("Cc1ccc(C)c(O)c1C", "false (0)"),
    ("Cc1cc(NC(=O)C(=O)O)cc(C)c1Oc1ccc(O)c2c1CCC2", "false (0)"),
    ("Cc1oc(-c2ccccc2)nc1CCOc1cccc2c1ccn2CCC(=O)O", "false (0)"),
    ("Cc1ccc(C(C)C)c(O)c1", "false (0)"),
    ("Cc1nc(C)nc(N2C[C@@H](C)N(c3ccnc([C@@H](C)O)n3)[C@@H](C)C2)n1", "false (0)"),
    ("Cc1c(C(=O)O)c(O)cc2c1C(=O)c1c(O)c([C@@H]3O[C@H](CO)[C@@H](O)[C@H](O)[C@H]3O)c(O)c(O)c1C2=O", "false (0)"),
    ("CC(=O)C(C)=CC1C(C)=CCCC1(C)C (configuration not stated)", "false (0)"),
    ("CC(C)c1ccc(C(=O)N=C(N)N)cc1S(C)(=O)=O", "false (0)"),
    ("CC1=C(/C=C/C(C)=C/C=C/C(C)=C/CO)C(C)(C)CCC1", "true (1)"),
]
